Catalogue of Ki(D2)*/Ki(D3)* values
Target: human dopamine D2L receptors (long isoform) (Homo sapiens)
Construct: expressed in transfected cells; host or cells: HEK-293
Sequence (P14416 whole entry, canonical isoform): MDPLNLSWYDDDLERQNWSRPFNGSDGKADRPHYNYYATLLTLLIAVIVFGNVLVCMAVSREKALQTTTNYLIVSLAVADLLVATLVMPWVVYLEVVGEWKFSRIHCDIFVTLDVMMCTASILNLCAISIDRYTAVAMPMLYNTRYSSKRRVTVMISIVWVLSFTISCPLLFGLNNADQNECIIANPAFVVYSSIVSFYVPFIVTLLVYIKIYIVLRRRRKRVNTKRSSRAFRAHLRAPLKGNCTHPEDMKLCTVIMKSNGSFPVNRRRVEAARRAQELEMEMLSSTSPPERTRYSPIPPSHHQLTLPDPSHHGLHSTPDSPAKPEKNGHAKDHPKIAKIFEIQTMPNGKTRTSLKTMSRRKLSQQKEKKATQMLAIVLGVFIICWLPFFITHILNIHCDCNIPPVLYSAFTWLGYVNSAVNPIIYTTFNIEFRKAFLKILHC
Assay: Dopamine D2L receptor binding ([125I] iodospiperone displacement)
Settings: selectivity ratio of receptor binding constants, D2L versus D3, HEK-293 membranes
Give your answer as a number; write no unit.

Compound	Ki(D2)*/Ki(D3)*
C=CCNCCc1ccc(NS(=O)(=O)c2ccc(OC(F)(F)F)cc2)cc1.Cl [Example 16]	79
C=CCNCCc1ccc(N(CCC)S(=O)(=O)c2ccc(C(C)C)cc2)cc1.Cl [Example 15]	22
CCCN(CCC)CCc1ccc(NS(=O)(=O)c2ccc(C(C)C)cc2)cc1 [Example 8]	54
C=CCNCCc1ccc(N(CCC)S(=O)(=O)c2ccc(OC(F)(F)F)cc2)cc1.Cl [Example 18]	24
CCCN(CCC)CCc1ccc(CS(=O)(=O)c2ccc(OC(F)(F)F)cc2)cc1 [Example 26]	170
CCCN[C@@H](C)Cc1ccc(NS(=O)(=O)c2ccc(OC(F)(F)F)cc2)cc1 [Example 1]	41
CCCN(CCC)CCc1ccc(N(C)S(=O)(=O)c2ccc(C(C)C)cc2)cc1 [Example 9]	40
CCCN[C@H](C)Cc1ccc(NS(=O)(=O)c2ccc(OC(F)(F)F)cc2)cc1 [Example 2]	57

Switching to the query record.
Name the recorded Ki(D2)*/Ki(D3)* for C=CCN(CC=C)CCc1ccc(CS(=O)(=O)c2ccc(C(C)C)cc2)cc1 [Example 23] .
59

====

Biological target: human dopamine D3 receptors (Homo sapiens)
Construct: expressed in transfected cells; host or cells: HEK-293
Sequence (P35462 whole entry): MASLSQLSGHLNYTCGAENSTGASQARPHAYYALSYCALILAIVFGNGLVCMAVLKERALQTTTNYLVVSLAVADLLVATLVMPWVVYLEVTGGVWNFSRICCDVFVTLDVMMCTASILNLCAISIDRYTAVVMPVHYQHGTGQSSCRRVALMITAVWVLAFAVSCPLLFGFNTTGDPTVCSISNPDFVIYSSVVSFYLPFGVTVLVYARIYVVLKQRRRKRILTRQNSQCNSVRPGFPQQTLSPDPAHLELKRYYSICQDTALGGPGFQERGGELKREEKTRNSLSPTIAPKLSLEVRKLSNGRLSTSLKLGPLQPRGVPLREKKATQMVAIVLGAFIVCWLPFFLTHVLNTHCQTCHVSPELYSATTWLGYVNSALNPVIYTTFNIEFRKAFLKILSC
Assay: Dopamine D3 receptor binding ([125I]-iodosulpride displacement)
Conditions: membranes of HEK-293 cells stably expressing human D3 receptor, 0.1 nM [125I]-iodosulpride, 25° C., 60 minutes; read-out: Ki(D3)*
Endpoint: log10(Ki) (log10 of the value in nM)
Quick note: numbers are log10 of Ki, with nM as the unit.

Answered examples (4):
Molecule	log10(Ki)
C=CCN(CC=C)CCc1ccc(NS(=O)(=O)c2ccc(OC(F)(F)F)cc2)cc1 [Example 20]	1.81
C=CCNCCc1ccc(N(CCC)S(=O)(=O)c2ccc(C(C)C)cc2)cc1.Cl [Example 15]	1.34
CCCNC(C)Cc1ccc(NS(=O)(=O)c2ccc(C(C)C)cc2)cc1.Cl (stereo not drawn) [Example 3]	0.45
C=CCN(CC=C)CCc1ccc(NS(=O)(=O)c2ccc(C(C)C)cc2)cc1 [Example 19]	0.43

Name the recorded log10(Ki) for CC(C)c1ccc(S(=O)(=O)Nc2ccc(CCNCC3CC3)cc2)cc1 [Example 7] .
1.26

Name the recorded log10(Ki) for C=CCNCCc1ccc(NS(=O)(=O)c2ccc(OC(F)(F)F)cc2)cc1.Cl [Example 16] .
1.49

Name the recorded log10(Ki) for CCCNCCc1ccc(NS(=O)(=O)c2ccc(C(C)C)cc2)cc1.Cl [Example 6] .
0.34

Name the recorded log10(Ki) for C=CCNCCc1ccc(NS(=O)(=O)c2ccc(C(C)C)cc2)cc1.Cl [Example 13] .
0.23

Name the recorded log10(Ki) for C=CCNCCc1ccc(N(C)S(=O)(=O)c2ccc(OC(F)(F)F)cc2)cc1 [Example 17] .
1.53
